Collected set of pKi measured with Sodium-dependent serotonin transporter (Rattus norvegicus, UniProt P31652) across studies.
pKi: −log10 of the molar value.
Label rule, in plain words: pKi of 8 and up is 1.0, under 8 is 0.0.

Known results for compounds:
Q: Assess whether reported pKi for CNCc1cc(CN2CCN(C(C)C)CC2=O)ccc1Oc1ccc(Cl)c(Cl)c1 sits at 8 or higher.
Result: 1.0

Q: Check NCCC(Oc1ccc(C(F)(F)F)cc1)c1ccc(OCCCN2CCCCC2)cc1 (centres unmarked) too.
Result: 1.0

Q: Try this compound too: CSc1ccc(Oc2ccc(CN3CCN(C(C)C)CC3)cc2CN)cc1
Result: 0.0

Okay, now this compound:
Q: Is pKi at least 8? Consider Cc1ccc2c3c(ccc2n1)OCC(CNCCCc1c[nH]c2ccc(C#N)cc12)O3 (centres unmarked)
Result: 1.0

----------
A compilation of Ki values for Sodium-dependent serotonin transporter (Rattus norvegicus) from the published literature.
API: value field is a number in nM; no unit string.

Q: What value of measured Ki is listed for C(#Cc1ccc(Oc2cccnc2)c(CNC2CC2)c1)CCN1CCOCC1 ?
Result: 18

Q: Consider next the compound CNCc1cc(C#CCCN2CCOCC2)ccc1Oc1cccnc1 in the same way.
Result: 7

Q: Try this compound too: COc1cccc2c1O[C@@H](CN[C@H]1CC[C@H](c3c[nH]c4ccc(F)cc34)C1)CO2 (mixture of isomers)
Result: 0.6

New cases:
Q: So what's the measured Ki for this one? Cc1ccc2c3c(ccc2n1)OC[C@H](CN[C@H]1CC[C@@H](c2c[nH]c4ccc(F)cc42)CC1)O3
Result: 19

----------
Reported Ki on UniProtKB P31652 for assorted compounds, compiled from publications.
Labelling field: enter met if recorded Ki is less than 6 nM. Enter not met if it equals or exceeds that cut-off.

For orientation, consider the following solved cases.
Q: Given CNCc1cc(C#CCCNC2CC2)ccc1Oc1ccc(SC)cc1 , is recorded Ki strictly lower than 6 nM?
Result: met

Q: Likewise for CNCc1cc(CN2CCN(C(C)C)CC2)ccc1Oc1ccc(SC)cc1 ?
Result: met

Q: // next record CN(C)CCC(Oc1ccc(C#CCCN2CCSCC2)cc1)c1ccc(Cl)cc1 (centres unmarked)
Result: not met

Others:
Q: Field: below-cutoff. Rule: recorded Ki strictly less than 6 nM. Subject: Cc1ccc2c3c(ccc2n1)OCC(CNCCCn1ccc2c(F)cccc21)O3 (centres unmarked)
Result: not met

Q: What about Cc1ccc2c3c(ccc2n1)OCC(CNCCc1csc2ccccc12)O3 (centres unmarked) ?
Result: not met

Q: // query: CSc1ccc(Oc2ccc(C#CCCN3CCCCC3)cc2CN(C)C(=O)OC(C)(C)C)cc1
Result: not met

Q: Could you do the same for Cc1ccc2c3c(ccc2n1)OC[C@H](CN1CCC(Cn2ccc4ccc(F)cc42)CC1)O3 , please?
Result: met

Q: Consider next the compound Cc1nc2ccc3c(c2o1)O[C@@H](CN1CCN(c2ccc4cc(C#N)ccc4n2)CC1)CO3 in the same way.
Result: not met

Q: Moving on to CNCc1cc(N2CCCN(C3CC3)CC2)ccc1Oc1ccc(Cl)c(Cl)c1
Result: not met

Q: Same question, CN(C)CCC(Oc1ccc(Cl)cc1)c1ccc(C#CCCN2CCCCC2)cc1 (centres unmarked) this time
Result: not met

Q: Similarly, COc1cccc2c1O[C@@H](CN[C@H]1CC[C@@H](c3cn(C)c4ccc(F)cc34)C1)CO2 (mixture of isomers) ?
Result: not met

Q: Do the same for CNCc1cc(N2CCN(C3CCC3)CC2)ccc1Oc1ccc(SC)cc1 please
Result: met

Q: Also COc1ccc(OC(CCN(C)C)c2ccc(OCCCN3CCCCC3)cc2)cc1 (centres unmarked) , if possible.
Result: met

Q: What about Clc1ccc(Oc2ccc(C#CCCN3CCOCC3)cc2CNC2CC2)cc1 ?
Result: met

Q: Try this compound too: Cc1ccc2c3c(ccc2n1)OCC(CNCCCc1c[nH]c2c(F)cc(F)cc12)O3 (centres unmarked)
Result: met

Q: Again, but for Cc1ccc2c3c(ccc2n1)OCC(CNC1CCC(c2cn(C)c4ccc(F)cc24)C1)O3 (single isomer, unassigned)
Result: met
